# TESTED SYSTEM: human FXR (Homo sapiens, UniProt Q96RI1)
# Sequence (Q96RI1 262-486 limits assumed): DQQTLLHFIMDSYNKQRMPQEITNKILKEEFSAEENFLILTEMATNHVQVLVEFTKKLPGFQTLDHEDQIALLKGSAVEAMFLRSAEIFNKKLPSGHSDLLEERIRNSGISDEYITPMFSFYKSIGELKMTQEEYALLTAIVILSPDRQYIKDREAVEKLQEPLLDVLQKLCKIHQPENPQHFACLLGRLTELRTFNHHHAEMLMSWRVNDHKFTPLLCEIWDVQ
# PROTOCOL DETAILS: transient human FXR/Gal4-luciferase reporter assay
# STATED CONDITIONS: Gal4-hFXR transfected HEK293 reporter cells; relative to 8 μM GW-4064
Catalogue of compounds with associated EC50

{"COMPOUND": "O=C(O)c1ccc2nc(N3CCC4(C=C(c5c(-c6c(Cl)cccc6Cl)noc5C5CC5)C4)CC3)ccc2c1 [Example 122]", "EC50 [nM]": 40}
{"COMPOUND": "O=C(O)c1cc(F)c2nc(N3CCC4(C=C(c5c(-c6cccnc6C(F)(F)F)noc5C5CC5)C4)CC3)sc2c1 [Example 138]", "EC50 [nM]": 319}
{"COMPOUND": "O=C(O)c1cnc(N2CCC3(C=C(c4c(-c5c(Cl)cccc5Cl)noc4C4CC4)C3)CC2)cc1C(F)(F)F [Example 116]", "EC50 [nM]": 135}
{"COMPOUND": "O=C(O)c1cc(F)c2nc(N3CCC4(C=C(c5c(C6CC6)nnn5-c5c(Cl)cccc5Cl)C4)CC3)sc2c1 [Example 204]", "EC50 [nM]": 26}
